- Tested on: HL-60
- ASSAY: Cell viability panel, ATPlite 1Step
- Assay type: cell-based
- MEASUREMENT SETUP: Homo sapiens, Acute myeloid leukemia, 72 h exposure, read-out: Compound EC50
READOUT: EC50

Specify measured EC50 for `CN(C)CCCS(=O)(=O)N1C/C(=C\c2ccc(C#N)cc2)C(=O)/C(=C/c2ccc(C#N)cc2)C1` .
< 300 nM

---

- Tested on: COLO 205
- ASSAY: Cell viability panel, ATPlite 1Step
- Type: cell-based
- MEASUREMENT SETUP: Homo sapiens, Colon adenocarcinoma, 72 h exposure, read-out: Compound EC50
READOUT: EC50

Specify measured EC50 for `CN(C)CCCS(=O)(=O)N1C/C(=C\c2ccc(C#N)cc2)C(=O)/C(=C/c2ccc(C#N)cc2)C1` .
< 0.3 µM
